Ref: PubChem BioAssay (NCI)

Kindly state GI50 for each of the entries shown.
- System: SW-620 colon
- Test Method Notes: NCI tumour cell line growth inhibition, 48 h

Q: Can you share its GI50? I mean this compound: C[C@H]1[C@H](C)CC[C@]2(C(=O)O)CC[C@]3(C)C(=CC[C@@H]4[C@@]5(C)CC[C@H](OC(=O)/C=C\c6ccc(O)cc6)C(C)(C)[C@@H]5CC[C@]43C)[C@H]12
Ans: 17600 nM

Q: Same lookup for COc1cc2c(/C=C3/C(=O)Nc4c3ccc3ccccc43)c(Cl)[nH]c2cc1C , please.
Ans: 78.1 nM

Q: Same lookup for COc1ccc(/C=C/C(=O)c2ccc(NC(=O)CSc3nnc(-c4cc(OC)c(OC)c(OC)c4)o3)cc2)cc1 , please.
Ans: 1860 nM

Q: Same lookup for N=c1c2c(=O)n3c(nc2nc2sc4ccc(Cl)cc4n12)-c1ccccc1Sc1ccccc1-3 , please.
Ans: 3050 nM

Q: Same lookup for COc1ccc2c(c1)c(=O)oc1cc(OC/C(=N\O)c3ccc(F)cc3)ccc12 , please.
Ans: 26400 nM

Q: Same lookup for CCN1CCN(Cc2ccc3cc(C(=O)Nc4cc(NC(=O)c5ccc6c(c5)OCCO6)ccc4F)ccc3n2)CC1 , please.
Ans: 46.2 nM

Q: Same lookup for COc1ccc2c(c1)N(CCO)C1=C(C(=O)OC1)C2c1cccc(Br)c1 (stereo not drawn) , please.
Ans: 46 nM

Q: Same lookup for Cc1cc(Cl)ccc1Nc1nc(C(F)(F)F)ccc1C(=O)N/N=C/c1c(Cl)cccc1Cl , please.
Ans: 322 nM
